MEASUREMENT_TARGET: catalytic kinase (JH1) domain of human JAK3 (Homo sapiens)
Construct: Catalytic activities of recombinant JAK2, JAK3 and TYK2 kinase domain
METHOD: ADP-Glo kinase assay, JAK3 kinase domain
Assay type: biochemical
CONDITION_LABEL: 0.3 nM recombinant JAK3 kinase domain, 50 μM JAK3-974 peptide, 4 μM ATP, 100 minutes; read-out: JAK3 biochem IC50 (nM) Mean
Where a name gives a salt, the structure may show the parent alone.
QUANTITY_NAME: IC50

The following compounds have reported results that may help.
COMPOUND | MEASUREMENT_TARGET | IC50
COCC[C@]1(C#N)C[C@@H](N2C3CCC2CN(c2ccnn4cc(-c5cnn(C)c5)cc24)C3)C1 [Example 39] | catalytic kinase (JH1) domain of human JAK3 (Homo sapiens) | 460 nM
Cn1cc(-c2cc3c(N4CC5CCC(C4)N5[C@H]4CC[C@H]4O)ccnn3c2)cn1 (racemic) [Example 50] | catalytic kinase (JH1) domain of human JAK3 (Homo sapiens) | > 10000 nM
Cn1cc(-c2nc3c(N4CC5CCC(C4)N5[C@H]4CC[C@@H]4O)ccnc3[nH]2)cn1 (single isomer, unassigned) [Example 7] | catalytic kinase (JH1) domain of human JAK3 (Homo sapiens) | > 10000 nM
COC[C@]1(C#N)C[C@H](N2C3CCC2CN(c2ccnn4cc(-c5cnn(C)c5)cc24)C3)C1 [Example 42] | catalytic kinase (JH1) domain of human JAK3 (Homo sapiens) | 2400 nM
Cn1cc(-c2nc3c(N4CC5CCC(C4)N5[C@H]4C[C@H](C#N)C4)ccnc3[nH]2)cn1 [Example 3] | catalytic kinase (JH1) domain of human JAK3 (Homo sapiens) | 1450 nM
N#C[C@H]1C[C@@H](N2C3CCC2CN(c2ccnn4cc(-c5cnn(C(F)F)c5)cc24)C3)C1 [Example 60] | catalytic kinase (JH1) domain of human JAK3 (Homo sapiens) | 132 nM

[ask] Query: IC50; subject: CN1CC(N2C3CCC2CN(c2ccnc4[nH]c(-c5cnn(C)c5)nc24)C3)C1 [Example 12, trifluoroacetate]
[reply] > 10000 nM

* * *

MEASUREMENT_TARGET: catalytic kinase (JH1) domain of human JAK1 (Homo sapiens, UniProt P23458)
Construct: 4 nM of recombinant JAK1 kinase domain is used to phosphorylate
Sequence (P23458 875-1153 limits assumed): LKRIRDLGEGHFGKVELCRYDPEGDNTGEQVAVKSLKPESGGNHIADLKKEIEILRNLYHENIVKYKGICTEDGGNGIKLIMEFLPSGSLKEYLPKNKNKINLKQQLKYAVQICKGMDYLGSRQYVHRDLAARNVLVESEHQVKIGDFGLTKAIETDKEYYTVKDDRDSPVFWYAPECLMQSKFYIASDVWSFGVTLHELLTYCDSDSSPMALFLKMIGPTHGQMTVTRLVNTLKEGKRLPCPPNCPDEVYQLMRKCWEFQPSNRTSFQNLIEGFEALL
METHOD: ADP-Glo kinase assay, JAK1 kinase domain
Type: biochemical
CONDITION_LABEL: 4 nM recombinant JAK1 kinase domain, 50 μM JAK3-342 peptide, 35 μM ATP, 100 minutes; read-out: JAK1 biochem IC50 (nM) Mean
The following compounds are shown together with reported IC50 values.
Expressed in nM, but write only the number.

[ask] Name the reported IC50 value associated with the compound Cn1cc(-c2cc3c(N4CC5CCC(C4)N5[C@H]4C[C@@H](C#N)C4)ccnc3[nH]2)cn1
[reply] 315

[ask] Sample N#C[C@H]1C[C@@H](N2C3CCC2CN(c2ccnn4cc(-c5cnn(C(F)F)c5)cc24)C3)C1 — what was its IC50?
[reply] 25.5

[ask] For the compound shown here, Cn1cc(-c2cc3c(N4CC5CCC(C4)N5[C@H]4C[C@@H](C#N)C4)ncnc3[nH]2)cn1 , give the reported IC50.
[reply] 340

[ask] Name the reported IC50 value associated with the compound COCC[C@]1(C#N)C[C@H](N2C3CCC2CN(c2ccnn4cc(-c5cnn(C)c5)cc24)C3)C1
[reply] 1400

* * *

MEASUREMENT_TARGET: catalytic kinase (JH1) domain of human JAK3 (Homo sapiens, UniProt P52333)
Construct: Catalytic activities of recombinant JAK2, JAK3 and TYK2 kinase domain
Sequence (P52333 822-1111 limits assumed): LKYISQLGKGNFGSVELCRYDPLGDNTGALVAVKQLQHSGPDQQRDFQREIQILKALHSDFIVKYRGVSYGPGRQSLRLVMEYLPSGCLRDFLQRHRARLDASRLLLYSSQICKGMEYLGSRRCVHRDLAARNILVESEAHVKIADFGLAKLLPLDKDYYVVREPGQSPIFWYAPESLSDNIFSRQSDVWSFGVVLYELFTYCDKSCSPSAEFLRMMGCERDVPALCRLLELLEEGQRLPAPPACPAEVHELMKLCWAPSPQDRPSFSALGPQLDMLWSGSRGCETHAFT
METHOD: ADP-Glo kinase assay, JAK3 kinase domain
Format: biochemical
CONDITION_LABEL: 0.3 nM recombinant JAK3 kinase domain, 50 μM JAK3-974 peptide, 4 μM ATP, 100 minutes; read-out: JAK3 biochem IC50 (nM) Mean
Protocol: As summarized in Table 3 below, compounds of the disclosure were assessed for their ability to inhibit TYK2, JAK1, JAK2, and JAK3 activity. The kinase activity of recombinantly generated catalytic kinase (also known as JH1) domain of human JAK1, JAK2, JAK3 and TYK2 were evaluated in a plate-based assay using the ADP-Glo™ Kinase Assay platform. […]
Measured log10 of IC50 values are reported for all entries that follow.
// do not treat as linear: log10 of IC50, unit nM

These solved cases illustrate the format of a correct answer.
COMPOUND | MEASUREMENT_TARGET | QUANTITY_NAME | RECORDED_MEASUREMENT
Cn1cc(-c2cc3c(N4CC5CCC(C4)N5[C@H]4C[C@H](CC#N)C4)ccnn3c2)cn1 | catalytic kinase (JH1) domain of human JAK3 (Homo sapiens, UniProt P52333) | log10 of IC50 | 3.97
COC[C@]1(C#N)C[C@@H](N2C3CCC2CN(c2ccnn4cc(-c5cnn(C)c5)cc24)C3)C1 | catalytic kinase (JH1) domain of human JAK3 (Homo sapiens, UniProt P52333) | log10 of IC50 | 2.41
COc1cc(-c2cc3c(N4CC5CCC(C4)N5C4CC(C#N)C4)ccnn3c2)cnn1 (stereo not drawn) | catalytic kinase (JH1) domain of human JAK3 (Homo sapiens, UniProt P52333) | log10 of IC50 | 3.20
CO[C@H]1C[C@H](N2C3CCC2CN(c2ccnc4[nH]c(-c5cnn(C)c5)nc24)C3)C1 | catalytic kinase (JH1) domain of human JAK3 (Homo sapiens, UniProt P52333) | log10 of IC50 | 3.99
Cn1cc(-c2cc3c(N4CC5CCC(C4)N5C4CC(F)(F)C4)ccnn3c2)cn1 | catalytic kinase (JH1) domain of human JAK3 (Homo sapiens, UniProt P52333) | log10 of IC50 | 2.76

In the following, a different compound is considered.
[ask] Give its log10 of IC50 value. Item: Cc1cc(-c2cc3c(N4CC5CCC(C4)N5C4CC(C#N)C4)ccnn3c2)cnn1 (stereo not drawn)
[reply] 2.84

* * *

MEASUREMENT_TARGET: catalytic kinase (JH1) domain of human TYK2 (Homo sapiens, UniProt P29597)
Construct: recombinantly generated catalytic kinase (also known as JH1) domain of human JAK1, JAK2, JAK3 and TYK2
Sequence (P29597 897-1176 limits assumed): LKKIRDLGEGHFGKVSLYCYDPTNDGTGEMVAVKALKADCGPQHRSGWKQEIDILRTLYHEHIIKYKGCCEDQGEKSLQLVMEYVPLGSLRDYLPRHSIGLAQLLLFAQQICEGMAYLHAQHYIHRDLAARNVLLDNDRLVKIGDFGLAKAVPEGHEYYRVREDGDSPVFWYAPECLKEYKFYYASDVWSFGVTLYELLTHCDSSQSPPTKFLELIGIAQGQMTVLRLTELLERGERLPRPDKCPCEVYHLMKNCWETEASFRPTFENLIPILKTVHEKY
METHOD: ADP-Glo kinase assay, TYK2 kinase domain
Type: biochemical
CONDITION_LABEL: 2 nM recombinant TYK2 kinase domain, 50 μM JAK3-974 peptide, 10 μM ATP, 100 minutes; read-out: TYK2 biochem IC50 (nM) Mean
Reported IC50 is given for each of the following compounds.
Please reply with the bare figure in nM and do not write the unit itself.

Below, each entry is followed by its recorded IC50 result.
COMPOUND | IC50 (nM)
Cn1cc(-c2cc3c(N4CC5CCC(C4)N5C4COC4)ccnn3c2)cn1 [Example 23] | 14.5
COCC[C@]1(C#N)C[C@@H](N2C3CCC2CN(c2ccnn4cc(-c5cnn(C)c5)cc24)C3)C1 [Example 39] | 6.95
COc1cc(-c2cc3c(N4CC5CCC(C4)N5C4COC4)ccnn3c2)cnn1 [Example 53] | 715

Next, consider the following compound.
[ask] So what does the record say about IC50 for COc1cc(-c2cc3c(N4CC5CCC(C4)N5C4CC(C(F)F)C4)ccnc3[nH]2)ccn1 (stereo not shown) [Example 19] ?
[reply] 40.5

* * *

MEASUREMENT_TARGET: catalytic kinase (JH1) domain of human JAK3 (Homo sapiens, UniProt P52333)
Construct: Catalytic activities of recombinant JAK2, JAK3 and TYK2 kinase domain
METHOD: ADP-Glo kinase assay, JAK3 kinase domain
Format: biochemical
QUANTITY_NAME: IC50 (nM)
The answer is to be given in nM; state only the numeric part.

MOLECULE | MEASUREMENT_TARGET | UNITS_LABEL | IC50
N#CC1CC(N2C3CCC2CN(c2ccnn4cc(-c5ccnnc5)cc24)C3)C1 (centres unmarked) | catalytic kinase (JH1) domain of human JAK3 (Homo sapiens, UniProt P52333) | nM | 625
Cn1cc(-c2cn3nccc(N4CC5CCC(C4)N5[C@H]4C[C@@H](C#N)C4)c3n2)cn1 | catalytic kinase (JH1) domain of human JAK3 (Homo sapiens, UniProt P52333) | nM | 1650
Cn1cc(-c2cc3c(N4CC5CCC(C4)N5[C@H]4C[C@@H](C#N)C4(C)C)ccnn3c2)cn1 (single isomer, unassigned) | catalytic kinase (JH1) domain of human JAK3 (Homo sapiens, UniProt P52333) | nM | 130
Cc1cc(-c2cc3c(N4CC5CCC(C4)N5[C@H]4C[C@@H](C#N)C4)ccnn3c2)on1 | catalytic kinase (JH1) domain of human JAK3 (Homo sapiens, UniProt P52333) | nM | 220
COc1cc(-c2cc3c(N4CC5CCC(C4)N5[C@H]4C[C@H](C#N)C4)ccnc3[nH]2)ccn1 | catalytic kinase (JH1) domain of human JAK3 (Homo sapiens, UniProt P52333) | nM | 74.3

Note: attention shifts to another entry.
[ask] So what IC50 did COc1cc(-c2cc3c(N4CC5CCC(C4)N5[C@H]4C[C@@H](C#N)C4)ccnc3[nH]2)ccn1 get with catalytic kinase (JH1) domain of human JAK3 (Homo sapiens, UniProt P52333)?
[reply] 1800
